System name: recombinant purified human CDK7 kinase (Homo sapiens (Human))
Sequence (P50613 whole entry): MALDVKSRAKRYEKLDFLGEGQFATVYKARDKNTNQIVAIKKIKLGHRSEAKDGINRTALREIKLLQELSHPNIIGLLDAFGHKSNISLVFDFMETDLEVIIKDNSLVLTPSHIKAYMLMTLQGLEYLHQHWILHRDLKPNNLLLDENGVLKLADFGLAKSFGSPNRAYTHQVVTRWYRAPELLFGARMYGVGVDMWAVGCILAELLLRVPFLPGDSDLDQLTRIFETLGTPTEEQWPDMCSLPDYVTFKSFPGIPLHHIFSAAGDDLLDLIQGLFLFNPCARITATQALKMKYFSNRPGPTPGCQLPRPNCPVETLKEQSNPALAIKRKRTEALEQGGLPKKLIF
Sequence (P51946 whole entry partner): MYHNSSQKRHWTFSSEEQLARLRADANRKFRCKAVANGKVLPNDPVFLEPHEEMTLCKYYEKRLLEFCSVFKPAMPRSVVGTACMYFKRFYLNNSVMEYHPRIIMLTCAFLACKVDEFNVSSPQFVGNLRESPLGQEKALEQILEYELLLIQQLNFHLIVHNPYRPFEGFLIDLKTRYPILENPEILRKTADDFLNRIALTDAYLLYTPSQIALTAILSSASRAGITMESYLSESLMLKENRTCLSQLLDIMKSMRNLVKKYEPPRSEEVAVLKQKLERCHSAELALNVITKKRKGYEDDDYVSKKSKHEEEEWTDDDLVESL
Sequence (P51948 whole entry partner): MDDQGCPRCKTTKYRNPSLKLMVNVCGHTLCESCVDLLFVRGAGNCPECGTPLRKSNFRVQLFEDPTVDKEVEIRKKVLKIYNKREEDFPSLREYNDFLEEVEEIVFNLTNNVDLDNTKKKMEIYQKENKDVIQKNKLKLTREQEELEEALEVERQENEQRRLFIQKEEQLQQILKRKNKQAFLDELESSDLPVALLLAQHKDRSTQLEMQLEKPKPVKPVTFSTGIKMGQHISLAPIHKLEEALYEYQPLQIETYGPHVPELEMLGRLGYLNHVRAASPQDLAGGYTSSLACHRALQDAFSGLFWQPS
Protocol description: CDK7 kinase-inhibitory activity, ADP-Glo kinase assay
Type: biochemical
Test parameters: ATP 90 µM, MBP substrate, 2 hours at 30° C., read-out: CDK7 inhibition(IC50 nM)
Item-by-item account of IC50
Reply with a number, then the unit it belongs to.

Please review the following examples before continuing.
Molecule	System name	IC50
C[C@H](C(=O)Nc1ncc(C(F)(F)F)s1)c1cccc(-c2cnc(NC(=O)/C=C/CN3CC[C@H](F)C3)cn2)c1 [Example 117]	recombinant purified human CDK7 kinase (Homo sapiens (Human))	15 nM
C[C@H](C(=O)Nc1ncc(N(C)C)s1)c1cccc(-c2cnc(NC(=O)/C=C/CN(C)C)cn2)c1 [Example 106]	recombinant purified human CDK7 kinase (Homo sapiens (Human))	71 nM
C=CC(=O)Nc1cnc(-c2cncc([C@H](C)C(=O)Nc3ncc(C(F)(F)F)s3)c2)cn1 [Example 52]	recombinant purified human CDK7 kinase (Homo sapiens (Human))	19 nM
C[C@H](C(=O)Nc1ncc(C(F)(F)F)s1)c1cccc(-c2cnc(NC(=O)/C=C/CN(C)C)cn2)c1 [Example 91]	recombinant purified human CDK7 kinase (Homo sapiens (Human))	8 nM
C=CC(=O)Nc1cnc(-c2cncc(C(C)C(=O)Nc3ncc(C(F)(F)F)s3)c2)cn1 (stereo not drawn) [Example 45]	recombinant purified human CDK7 kinase (Homo sapiens (Human))	22 nM

Input: Tell me the measured IC50 of CCc1cnc(NC(=O)[C@@H](C)c2cccc(-c3cnc(NC(=O)/C=C/CN(C)C)c(C#N)c3)c2)s1 [Example 121] , please.
Output: 7 nM

Input: Try the molecule C[C@H](C(=O)Nc1ncc(C(F)(F)F)s1)c1cccc(-c2cnc(NC(=O)/C=C/CN3CCC(O)C3)cn2)c1 (stereo partly drawn) [Example 119]
Output: 9 nM

Input: Now consider C[C@H](C(=O)Nc1ncc(C(F)(F)F)s1)c1cccc(-c2cnc(NC(=O)/C=C/CN3CCN(C)CC3)cn2)c1 [Example 95] .
Output: 80 nM

Input: Try this molecule next: CC(C(=O)Nc1ncc(C(F)(F)F)s1)c1cncc(-c2cnc(NC(=O)/C=C/CN(C)C)cn2)c1 (stereo not drawn) [Example 63]
Output: 17 nM

Input: What do you have for CCc1cnc(NC(=O)[C@@H](C)c2cccc(-c3cnc(NC(=O)/C=C/CN(C)C)c(C)c3)c2)s1 [Example 125] ?
Output: 13 nM

The reported numbers originate from patent US12110299B2.
